# target_entity: Human immunodeficiency virus type 1 reverse transcriptase (Human immunodeficiency virus 1, UniProt Q72547, Y181C)
# test: Inhibition of HIV1 reverse transcriptase Y181C mutant
quantity_name: IC50

- sample_smiles: "Cc1cc(S(N)(=O)=O)ccc1NC(=O)COc1ccc(Cl)cc1C(=O)c1cc(F)cc(C(F)(F)F)c1"
  result: "< 10 nM"

====

# target_entity: Human immunodeficiency virus type 1 reverse transcriptase (Human immunodeficiency virus 1, UniProt Q72547, K103N)
# test: Inhibition of HIV1 reverse transcriptase K103N mutant

- sample_smiles: "Cc1cc(S(N)(=O)=O)ccc1NC(=O)COc1ccc(Cl)cc1C(=O)c1cc(F)cc(C(F)(F)F)c1"
  IC50: "< 10 nM"

====

# test: Selectivity index, ratio of human MT4 cytotoxicity to inhibition of HIV1 cytopathicity
# Type: toxicity
# conditions_used: MT4 cells, read-out: Selectivity Index

- compound: "COc1ccccc1NC(C(N)=O)c1c(Cl)cccc1Cl (configuration not stated)"
  selectivity ratio: 10000
- compound: "CC(=O)c1ccc(C)cc1NC(C(N)=O)c1c(Cl)cccc1Cl (configuration not stated) [LOVIRIDE]"
  selectivity ratio: 10000
